B1: EEHEE_rd4_0763 (parent)
chain: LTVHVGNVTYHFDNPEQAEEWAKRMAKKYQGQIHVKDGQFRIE

Variants of: B1
Measurement description: folding stability dG (cDNA display proteolysis); higher = more stable
Condition notes: PBS, room temperature
Endpoint label: folding stability dG (kcal/mol)
Answers are plain numbers, in kcal/mol.

R24E    1.43
M25Y    1.45
A18C    1.54
G6R    1.31
E20A    1.87

List the reported folding stability dG of each variant below.
1. H34P
2. E43P
3. F40Y
4. Q32E
5. E16F

Output line:
1. 0.852
2. 1.15
3. 1.78
4. 1.56
5. 1.63

List the reported folding stability dG of each variant below.
1. Q32T
2. N7I
3. R24I
4. A18R
5. T9L
6. A18G
7. I42T
8. K23W

Output line:
1: 1.99; 2: 1.49; 3: 1.75; 4: 0.882; 5: 1.58; 6: 1.25; 7: 1.08; 8: 1.56
